Listed below: inhibition at 0.0274 µg/mL values for each entry.
# ASSAYED SYSTEM: rat hepatic microsomal HMG CoA reductase (Rattus norvegicus, UniProt P51639)
# Construct: rat hepatic microsomal HMG CoA reductase activity in vitro; from tissue; host or cells: rat liver microsomes
# Sequence (P51639 1-887): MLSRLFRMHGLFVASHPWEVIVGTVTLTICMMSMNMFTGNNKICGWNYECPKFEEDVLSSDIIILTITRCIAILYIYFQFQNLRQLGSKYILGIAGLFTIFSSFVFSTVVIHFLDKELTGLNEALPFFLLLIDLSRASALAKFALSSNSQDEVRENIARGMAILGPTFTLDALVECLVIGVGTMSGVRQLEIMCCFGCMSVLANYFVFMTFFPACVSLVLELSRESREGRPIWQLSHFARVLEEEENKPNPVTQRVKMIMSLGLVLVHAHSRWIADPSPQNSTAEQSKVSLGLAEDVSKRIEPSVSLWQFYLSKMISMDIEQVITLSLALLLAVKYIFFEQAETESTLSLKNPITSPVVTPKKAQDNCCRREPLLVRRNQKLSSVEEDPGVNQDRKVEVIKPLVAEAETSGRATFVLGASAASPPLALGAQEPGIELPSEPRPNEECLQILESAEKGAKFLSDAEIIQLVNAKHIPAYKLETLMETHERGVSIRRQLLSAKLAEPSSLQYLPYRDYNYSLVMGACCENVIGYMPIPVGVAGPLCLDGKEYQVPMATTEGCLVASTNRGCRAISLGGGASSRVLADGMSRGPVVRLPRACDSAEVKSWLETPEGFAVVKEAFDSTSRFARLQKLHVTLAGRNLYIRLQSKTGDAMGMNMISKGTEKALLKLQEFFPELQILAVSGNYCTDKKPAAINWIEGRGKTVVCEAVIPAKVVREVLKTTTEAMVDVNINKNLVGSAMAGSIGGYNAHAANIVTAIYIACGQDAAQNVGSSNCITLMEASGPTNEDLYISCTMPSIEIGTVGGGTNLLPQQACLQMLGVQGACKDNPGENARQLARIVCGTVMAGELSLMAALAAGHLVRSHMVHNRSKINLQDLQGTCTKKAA
# ASSAY EXPLANATION: inhibition in rat hepatic microsomal HMG CoA reductase activity in vitro (Table I)
# Type: biochemical
# CONDITION INFO: 0.0274 micrograms/ml
MEASUREMENT LABEL: inhibition at 0.0274 µg/mL (%)

> print(dat)
                                   compound  measured.value
1  CCOC(=O)CC(O)CC(O)/C=C/c1c(-c2ccc(F)cc2)c2c3ccccc3ccn2c1C(C)C (stereo not shown)              55
2  CC(C)c1c(/C=C/[C@@H](O)C[C@H](O)CC(=O)O)c(-c2ccc(F)cc2)c2c3ccccc3ccn12 (relative stereo)              21
3  CCc1c(/C=C/C(O)CC(O)CC(=O)O)c(-c2ccc(F)cc2)c2c3ccccc3ccn12 (stereo not shown)              27
4  CC(C)c1c(/C=C/[C@@H](O)C[C@@H](O)CC(=O)O)c(-c2ccc(F)cc2)c2c3ccccc3ccn12 (relative stereo)              51

---

# ASSAYED SYSTEM: rat hepatic microsomal HMG CoA reductase (Rattus norvegicus, UniProt P51639)
# Construct: rat hepatic microsomal HMG CoA reductase activity in vitro; from tissue; host or cells: rat liver microsomes
# ASSAY EXPLANATION: inhibition in rat hepatic microsomal HMG CoA reductase activity in vitro (Table I)
# Type: biochemical
# CONDITION INFO: 0.74 micrograms/ml
Threshold check on inhibition at 0.74 µg/mL: at or above 50% gives Criterion met, strictly below gives Criterion not met.

> print(dat)
                                   molecule     assigned.label
1  CC(C)c1c(/C=C/[C@@H](O)C[C@@H](O)CC(=O)O)c(-c2ccc(F)cc2)c2c3ccccc3ccn12 (relative stereo) [OA]      Criterion met
2  CCOC(=O)CC(O)CC(O)/C=C/c1c(-c2ccccc2)c2c3ccccc3ccn2c1C (stereo not drawn) [Compound H]  Criterion not met
3  Cc1c(/C=C/C(O)CC(O)CC(=O)O)c(-c2ccccc2)c2c3ccccc3ccn12 (stereo not drawn) [Compound I]  Criterion not met
4  CC(C)c1c(/C=C/C(=O)CC(O)CC(=O)O)c(-c2ccc(F)cc2)c2c3ccccc3ccn12 (stereo not drawn) [Compound Q]  Criterion not met
5  CC(C)c1c(/C=C/[C@@H](O)C[C@H](O)CC(=O)O)c(-c2ccc(F)cc2)c2c3ccccc3ccn12 (relative stereo) [OB]      Criterion met
6  CC(C)c1c(/C=C/C(O)CC(O)CC(=O)O)c(-c2ccc(F)cc2)n2ccc3ccccc3c12 (stereo not drawn) [Compound M]      Criterion met
7  CCOC(=O)CC(O)CC(O)/C=C/c1c(-c2ccc(F)cc2)c2c3ccccc3ccn2c1C(C)C (stereo not drawn) [N]      Criterion met
8  CCc1c(/C=C/C(O)CC(O)CC(=O)O)c(-c2ccc(F)cc2)c2c3ccccc3ccn12 (stereo not drawn) [Compound K]      Criterion met
9  CC(C)c1c(/C=C/C(O)CC(O)CC(=O)O)c(-c2ccc(F)cc2)c2c3ccccc3ccn12 (stereo not drawn) [O]      Criterion met
